B1: library; a variant is named by its letters at N, in order (parent)
chain: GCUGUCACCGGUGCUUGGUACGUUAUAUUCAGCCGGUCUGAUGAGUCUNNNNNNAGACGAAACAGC

variants of: B1; assay: normalized RNA/DNA level without ligand (relative to sTRSVctl = 100) (log10 (% of sTRSVctl)); HEK293T overexpressing SLC46A1; higher = less ribozyme self-cleavage, higher mRNA level; conditions: without (6R,S)-folinic acid; ligand present: no
Answer each item with its documented normalized RNA/DNA level without ligand (log10).
// return just the number, without any unit appended

Reported normalized RNA/DNA level without ligand (log10) for `CCGCCC` was 2.07

Reported normalized RNA/DNA level without ligand (log10) for `AGAUAG` was 1.93

Reported normalized RNA/DNA level without ligand (log10) for `CCAGUU` was 2.02

Reported normalized RNA/DNA level without ligand (log10) for `AACAUA` was 1.98

Reported normalized RNA/DNA level without ligand (log10) for `GAACAA` was 1.98

Reported normalized RNA/DNA level without ligand (log10) for `ACGAUA` was 1.97

Reported normalized RNA/DNA level without ligand (log10) for `GUCGGG` was 2

Reported normalized RNA/DNA level without ligand (log10) for `CACAUA` was 1.98

Reported normalized RNA/DNA level without ligand (log10) for `CAGACA` was 2.02

Reported normalized RNA/DNA level without ligand (log10) for `AGUGGU` was 1.95

Reported normalized RNA/DNA level without ligand (log10) for `UCACUG` was 1.91

Reported normalized RNA/DNA level without ligand (log10) for `GUUGCG` was 1.91

Reported normalized RNA/DNA level without ligand (log10) for `CUCUCU` was 2.03

Reported normalized RNA/DNA level without ligand (log10) for `CCAAGC` was 2.1

Reported normalized RNA/DNA level without ligand (log10) for `CAGACG` was 2.03

Reported normalized RNA/DNA level without ligand (log10) for `GAUCUC` was 2.06

Reported normalized RNA/DNA level without ligand (log10) for `UUAUAC` was 1.99

Reported normalized RNA/DNA level without ligand (log10) for `AUAGUU` was 1.99

Reported normalized RNA/DNA level without ligand (log10) for `ACCGGC` was 2.14

Reported normalized RNA/DNA level without ligand (log10) for `AAGUCC` was 2

Reported normalized RNA/DNA level without ligand (log10) for `UGCGGA` was 1.89

Reported normalized RNA/DNA level without ligand (log10) for `ACCCGU` was 2.04

Reported normalized RNA/DNA level without ligand (log10) for `AAUAGA` was 1.96

Reported normalized RNA/DNA level without ligand (log10) for `ACUGCC` was 2.06

Reported normalized RNA/DNA level without ligand (log10) for `CUGGAG` was 1.88

Reported normalized RNA/DNA level without ligand (log10) for `GAUUAA` was 1.98

Reported normalized RNA/DNA level without ligand (log10) for `AUUGAU` was 1.93

Reported normalized RNA/DNA level without ligand (log10) for `UAUACA` was 1.97

Reported normalized RNA/DNA level without ligand (log10) for `CGUCUU` was 2.02

Reported normalized RNA/DNA level without ligand (log10) for `CACUAA` was 1.96

Reported normalized RNA/DNA level without ligand (log10) for `CGCGUG` was 1.96

Reported normalized RNA/DNA level without ligand (log10) for `CAAACG` was 2.02

Reported normalized RNA/DNA level without ligand (log10) for `UUCCGC` was 2.03

Reported normalized RNA/DNA level without ligand (log10) for `UUACAA` was 1.96

Reported normalized RNA/DNA level without ligand (log10) for `UGCUUU` was 2.02

Reported normalized RNA/DNA level without ligand (log10) for `UCAUAA` was 1.93

Reported normalized RNA/DNA level without ligand (log10) for `AAAAAC` was 1.98

Reported normalized RNA/DNA level without ligand (log10) for `GGGAUU` was 2.03

Reported normalized RNA/DNA level without ligand (log10) for `GGCUGC` was 2.07

Reported normalized RNA/DNA level without ligand (log10) for `GAAAAC` was 1.95

Reported normalized RNA/DNA level without ligand (log10) for `GCGACC` was 2.03

Reported normalized RNA/DNA level without ligand (log10) for `AUACUC` was 2.05

Reported normalized RNA/DNA level without ligand (log10) for `GGAUCG` was 2.04

Reported normalized RNA/DNA level without ligand (log10) for `UGUUAC` was 1.95

Reported normalized RNA/DNA level without ligand (log10) for `AGUCAC` was 2.02

Reported normalized RNA/DNA level without ligand (log10) for `UAUGGA` was 1.83

Reported normalized RNA/DNA level without ligand (log10) for `GACCUG` was 2.06

Reported normalized RNA/DNA level without ligand (log10) for `AGAUCG` was 1.99

Reported normalized RNA/DNA level without ligand (log10) for `GCGUCG` was 2.04

Reported normalized RNA/DNA level without ligand (log10) for `AUGGCU` was 1.99

Reported normalized RNA/DNA level without ligand (log10) for `CGGCGG` was 1.97

Reported normalized RNA/DNA level without ligand (log10) for `GCCAAC` was 2.03

Reported normalized RNA/DNA level without ligand (log10) for `GUUAGG` was 1.94

Reported normalized RNA/DNA level without ligand (log10) for `UGUUAG` was 1.63

Reported normalized RNA/DNA level without ligand (log10) for `AAUGUU` was 1.97

Reported normalized RNA/DNA level without ligand (log10) for `GCUGAG` was 1.97

Reported normalized RNA/DNA level without ligand (log10) for `UGAGGA` was 1.84

Reported normalized RNA/DNA level without ligand (log10) for `GGAAAG` was 1.95

Reported normalized RNA/DNA level without ligand (log10) for `UAUCAA` was 1.96

Reported normalized RNA/DNA level without ligand (log10) for `ACAGGA` was 1.95

Reported normalized RNA/DNA level without ligand (log10) for `CUGAAG` was 1.88

Reported normalized RNA/DNA level without ligand (log10) for `CUCAUU` was 2.08

Reported normalized RNA/DNA level without ligand (log10) for `UGGGAC` was 1.99

Reported normalized RNA/DNA level without ligand (log10) for `GCGCCC` was 2.07

Reported normalized RNA/DNA level without ligand (log10) for `GAACGA` was 2

Reported normalized RNA/DNA level without ligand (log10) for `GUGAAA` was 1.96

Reported normalized RNA/DNA level without ligand (log10) for `AGUUGG` was 1.87

Reported normalized RNA/DNA level without ligand (log10) for `UCACGA` was 2.02

Reported normalized RNA/DNA level without ligand (log10) for `AUCGCC` was 2.04

Reported normalized RNA/DNA level without ligand (log10) for `UUGUCU` was 2.05

Reported normalized RNA/DNA level without ligand (log10) for `CGUACG` was 2.02

Reported normalized RNA/DNA level without ligand (log10) for `GGGGUA` was 1.99

Reported normalized RNA/DNA level without ligand (log10) for `AAUUAG` was 1.94

Reported normalized RNA/DNA level without ligand (log10) for `UGGAGG` was 1.64

Reported normalized RNA/DNA level without ligand (log10) for `AUUCGA` was 1.99

Reported normalized RNA/DNA level without ligand (log10) for `AACGGC` was 2.06

Reported normalized RNA/DNA level without ligand (log10) for `UCAAAC` was 2.01

Reported normalized RNA/DNA level without ligand (log10) for `UGAUCU` was 2

Reported normalized RNA/DNA level without ligand (log10) for `UCCGUA` was 1.96

Reported normalized RNA/DNA level without ligand (log10) for `AUGCAC` was 2

Reported normalized RNA/DNA level without ligand (log10) for `AAGUGC` was 1.98

Reported normalized RNA/DNA level without ligand (log10) for `UUACCG` was 1.97

Reported normalized RNA/DNA level without ligand (log10) for `GAGAUC` was 2.04

Reported normalized RNA/DNA level without ligand (log10) for `CCACCU` was 2.1

Reported normalized RNA/DNA level without ligand (log10) for `GCAAGU` was 2.01

Reported normalized RNA/DNA level without ligand (log10) for `CCCCUG` was 2.06

Reported normalized RNA/DNA level without ligand (log10) for `UAGGUA` was 1.88

Reported normalized RNA/DNA level without ligand (log10) for `GCACAU` was 1.99

Reported normalized RNA/DNA level without ligand (log10) for `UUCAGG` was 1.89

Reported normalized RNA/DNA level without ligand (log10) for `AGUGUA` was 1.94

Reported normalized RNA/DNA level without ligand (log10) for `ACUCGU` was 2.03

Recorded values, source the supplement of paper PMC6757056.
